- measured target: T1, human TGFβ3 (human, UniProt P10600 301-412)
- T1 sequence: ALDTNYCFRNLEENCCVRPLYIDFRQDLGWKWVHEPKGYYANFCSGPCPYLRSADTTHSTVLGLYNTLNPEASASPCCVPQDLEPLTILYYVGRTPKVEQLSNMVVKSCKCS
- procedure text: Biacore off-rate vs wt GC1008
Quick reference for kd mutant/kd wt among some binders

[
  {
    "binder": "S31W (antibody, V domains shown, GC1008 IgG4 variant) VH: QVQLVQSGAEVKKPGSSVKVSCKASGYTFSWNVISWVRQAPGQGLEWMGGVIPIVDIANYAQRFKGRVTITADESTSTTYMELSSLRSEDTAVYYCASTLGLVLDAMDYWGQGTLVTVSS VL: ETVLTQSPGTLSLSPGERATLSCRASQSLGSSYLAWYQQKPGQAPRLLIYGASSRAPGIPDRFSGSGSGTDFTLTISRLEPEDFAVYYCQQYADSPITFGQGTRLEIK",
    "kd mutant/kd wt": 1.6
  },
  {
    "binder": "Y27H (antibody, V domains shown, GC1008 IgG4 variant) VH: QVQLVQSGAEVKKPGSSVKVSCKASGHTFSSNVISWVRQAPGQGLEWMGGVIPIVDIANYAQRFKGRVTITADESTSTTYMELSSLRSEDTAVYYCASTLGLVLDAMDYWGQGTLVTVSS VL: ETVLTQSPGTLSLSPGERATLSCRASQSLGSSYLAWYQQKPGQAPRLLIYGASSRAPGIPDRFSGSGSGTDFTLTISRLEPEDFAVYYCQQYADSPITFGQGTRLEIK",
    "kd mutant/kd wt": 1.4
  },
  {
    "binder": "I54T (antibody, V domains shown, GC1008 IgG4 variant) VH: QVQLVQSGAEVKKPGSSVKVSCKASGYTFSSNVISWVRQAPGQGLEWMGGVIPTVDIANYAQRFKGRVTITADESTSTTYMELSSLRSEDTAVYYCASTLGLVLDAMDYWGQGTLVTVSS VL: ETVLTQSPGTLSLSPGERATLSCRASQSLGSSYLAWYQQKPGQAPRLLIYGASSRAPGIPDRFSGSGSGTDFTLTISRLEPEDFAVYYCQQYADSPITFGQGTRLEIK",
    "kd mutant/kd wt": 1.7
  }
]
